TESTED ON: T1, Trx-2α (thioredoxin-tagged HIF-2α 1-360, bHLH-PASA-PASB) (UniProt Q99814 1-360)
T1 construct: range 1-360; not shown: Thioredoxin-His6 tag of vector pET32
T1 sequence (Q99814 1-360): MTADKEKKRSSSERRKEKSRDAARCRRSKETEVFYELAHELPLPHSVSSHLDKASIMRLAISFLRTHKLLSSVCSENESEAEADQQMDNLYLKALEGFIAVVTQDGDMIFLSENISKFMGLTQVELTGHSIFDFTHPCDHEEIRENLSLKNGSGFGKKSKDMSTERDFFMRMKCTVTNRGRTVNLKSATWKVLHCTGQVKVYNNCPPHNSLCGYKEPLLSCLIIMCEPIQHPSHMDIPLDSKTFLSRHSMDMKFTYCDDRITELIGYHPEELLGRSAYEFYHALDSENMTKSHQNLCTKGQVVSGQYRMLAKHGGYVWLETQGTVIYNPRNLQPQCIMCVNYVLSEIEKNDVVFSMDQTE
ASSAY: competition ELISA: His-tagged Trx-2α on Ni plate, peptide titrated, binding of GST-1β (blocked partner) detected with anti-GST, A450
For each entry below, report its IC50 value.
One number for each entry, in µM.

binder="CRLLIF (cyclic peptide (cyclo-, first amino acid joined to the last), One of the 4 cyclic peptide hits of the SICLOPPS screen; made by solid phase synthesis; also called CRLLIX where X = F) [cyclo-CRLLIF (SEQ ID NO 3)]" observed_measurement=186

We now examine a further binder.
stdin: Give the measured IC50 for CRVIIF (cyclic peptide (cyclo-, first amino acid joined to the last), also called Compound C) [cyclo-CRVIIF (SEQ ID NO 4)]
stdout: 244
